- Tested on: Dengue 3 virus MY05-34640-WT-C6/36
- Protocol text: High-content imaging cell-based flavivirus immunodetection (HCl-CFI) assay, Dengue 3
- Assay conditions: Dengue virus, A549, 48 h, read-out: Dengue 3 virus MY05-34640-WT-C6/36 in A549 using HCl [Inhibitor/IC50] Qualified AC50
Measurement type: EC50

Solved entries:
>  <Compound>
N#Cc1c(NC(=O)Cc2ccc(S(N)(=O)=O)cc2)sc2c1CCN(Cc1ccc(F)cc1)C2

>  <Measurement type>
EC50

>  <Result>
100 to 1000 nM

$$$$
>  <Compound>
COc1cccc(CC(=O)Nc2sc3c(c2C#N)CN(Cc2cccc(F)c2)CC3)c1Cl

>  <Measurement type>
EC50

>  <Result>
100 to 1000 nM

$$$$
>  <Compound>
N#Cc1c(NC(=O)Cc2ccc3c(c2)S(=O)(=O)NC3)sc2c1CN(Cc1cccc(F)c1)CC2

>  <Measurement type>
EC50

>  <Result>
< 100 nM

$$$$

Entry CCOc1cc(CC(=O)Nc2sc3c(c2C#N)CN(Cc2cccc(F)c2)CC3)ccc1S(N)(=O)=O — recorded EC50 = < 100 nM

Entry N#Cc1c(NC(=O)Cc2ccc(S(N)(=O)=O)cc2)sc2c1CN(Cc1cccc(F)c1)CC2 — recorded EC50 = < 100 nM

Entry Cc1ccccc1CN1CCc2c(sc(NC(=O)Cc3ccc(S(C)(=O)=O)cc3)c2C#N)C1 — recorded EC50 = 100 to 1000 nM

Entry CC1Cc2sc(NC(=O)Cc3ccc(S(N)(=O)=O)cc3)c(C#N)c2CN1CC1CC(F)(F)C1 (centres unmarked) — recorded EC50 = 100 to 1000 nM

Entry N#Cc1c(NC(=O)Cc2ccc3c(c2)CCS3(=O)=O)sc2c1CN(Cc1cccc(F)c1)CC2 — recorded EC50 = < 100 nM

###

- Test system: Dengue 1 virus MY97-10245
- Protocol text: High-content imaging cell-based flavivirus immunodetection (HCl-CFI) assay, Dengue 1
- Assay conditions: Dengue virus, A549, 48 h, read-out: Dengue 1 virus MY97-10245 in A549 using HCl [Inhibitor/IC50] Qualified AC50
pEC50: −log10 of the molar value.
Measurement type: pEC50

Solved entries:
>  <Compound>
CS(=O)(=O)c1ccc(CC(=O)Nc2sc3c(c2C#N)CCN(Cc2cccc(F)c2)C3)cc1 [Example 119]

>  <pEC50>
< 6.00

$$$$
>  <Compound>
CC1Cc2sc(NC(=O)Cc3ccc(S(N)(=O)=O)cc3)c(C#N)c2CN1CC1CCC1 (stereo not shown) [Example 60]

>  <pEC50>
< 6.00

$$$$
>  <Compound>
CN(C)S(=O)(=O)c1ccc(CC(=O)Nc2sc3c(c2C#N)CN(Cc2cccc(F)c2)CC3)cc1 [Example 47]

>  <pEC50>
6.00 to 7.00

$$$$
>  <Compound>
N#Cc1c(NC(=O)Cc2ccc(S(N)(=O)=O)cc2)sc2c1CN(CC1CC(F)(F)C1)CC2 [Example 2]

>  <pEC50>
< 6.00

$$$$
>  <Compound>
COc1cc(CC(=O)Nc2sc3c(c2C#N)CN(Cc2cccc(F)c2)CC3)ccc1S(C)(=O)=O [Example 30]

>  <pEC50>
6.00 to 7.00

$$$$

Entry COCCOc1cccc(CC(=O)Nc2sc3c(c2C#N)CN(Cc2cccc(F)c2)CC3)c1 [Example 31] — recorded pEC50 = < 6.00

Entry Cc1cc(C)cc(CN2CCc3c(sc(NC(=O)Cc4ccc(S(C)(=O)=O)cc4)c3C#N)C2)c1 [Example 118] — recorded pEC50 = < 6.00

Entry CCOc1cc(CC(=O)Nc2sc3c(c2C#N)CN(Cc2cccc(F)c2)CC3)ccc1S(C)(=O)=O [Example 37] — recorded pEC50 = 6.00 to 7.00

Entry COc1cc(F)cc(CC(=O)Nc2sc3c(c2C#N)CN(Cc2cccc(F)c2)CC3)c1 [Example 35] — recorded pEC50 = < 6.00

Entry N#Cc1c(NC(=O)Cc2ccc3c(c2)CNC3)sc2c1CN(CC1CCCCC1)CC2 [Example 20] — recorded pEC50 = < 6.00
